tested on: Staph. aureus Smith; assay: Intraperitoneally infected white mice, Staph. aureus Smith; type: in vivo; details: Staphylococcus aureus, 2 × po., with infection and 3 hours later, read-out: average effective dose/confidence interval
observable: ED50 (mg/kg)
// return numeric value only (unit: mg/kg, not printed)

| compound | measured_target | measurement_unit | value_reported |
| --- | --- | --- | --- |
| Cc1c(C(=O)NCCC#N)[n+]([O-])c2ccccc2[n+]1[O-] [C] | Staph. aureus Smith | mg/kg | 27 |
| COC(=O)N/N=C/c1c[n+]([O-])c2ccccc2[n+]1[O-] [E, reference compound] | Staph. aureus Smith | mg/kg | 35 |
| Cc1c(C(=O)NCC#N)[n+]([O-])c2ccccc2[n+]1[O-] [A] | Staph. aureus Smith | mg/kg | 12 |
| Cc1c(C(=O)NC(C)(C)C#N)[n+]([O-])c2ccccc2[n+]1[O-] [B] | Staph. aureus Smith | mg/kg | 18 |

Attention now turns to another entry.
Req: Provide measured ED50 value, entry: Cc1c(C(=O)NCCO)[n+]([O-])c2ccccc2[n+]1[O-] [D, reference compound]
Resp: 60

* * *

test system: Pseud. aerug.; assay: Intraperitoneally infected white mice, Pseud. aerug.; type: in vivo; details: Mus musculus, 2 × sc., with infection and 3 hours later, read-out: average effective dose/confidence interval
observable: ED50 (mg/kg)
// return numeric value only (unit: mg/kg, not printed)

| compound | ED50 [mg/kg] |
| --- | --- |
| Cc1c(C(=O)NCCC#N)[n+]([O-])c2ccccc2[n+]1[O-] [C] | 105 |
| Cc1c(C(=O)NCCO)[n+]([O-])c2ccccc2[n+]1[O-] [D, reference compound] | 210 |

Attention now turns to another entry.
Req: Consider the compound Cc1c(C(=O)NCC#N)[n+]([O-])c2ccccc2[n+]1[O-] [A] tested on Pseud. aerug.; state its ED50.
Resp: 120
